The origin of these recorded values is ChEMBL document CHEMBL4000143.

target: 5-hydroxytryptamine receptor 2A (Homo sapiens, UniProt P28223); assay: Antagonist activity at human 5-HT2A receptor expressed in F1pIn CHO cells assessed as inhibition of serotonin-induced myo-inositol 1 phosphate accumulation after 1 hr by HTRF assay; assay type: functional, cell-based
Sequence (P28223 whole entry): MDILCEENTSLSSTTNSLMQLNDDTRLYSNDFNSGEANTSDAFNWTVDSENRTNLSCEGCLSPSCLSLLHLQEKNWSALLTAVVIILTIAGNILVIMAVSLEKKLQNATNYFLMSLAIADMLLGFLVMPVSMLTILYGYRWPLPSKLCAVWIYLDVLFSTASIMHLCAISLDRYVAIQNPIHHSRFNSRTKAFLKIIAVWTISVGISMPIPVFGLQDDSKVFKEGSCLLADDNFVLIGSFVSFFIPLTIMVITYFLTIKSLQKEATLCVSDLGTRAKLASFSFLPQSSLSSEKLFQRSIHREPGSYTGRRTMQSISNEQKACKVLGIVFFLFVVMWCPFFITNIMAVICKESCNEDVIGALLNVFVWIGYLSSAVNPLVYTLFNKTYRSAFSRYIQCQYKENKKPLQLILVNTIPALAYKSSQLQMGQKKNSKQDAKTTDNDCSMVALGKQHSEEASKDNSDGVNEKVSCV
# Kb values compiled below
Write it as a number; the unit nM goes unstated.

Example results:
{"Test smiles": "O=C1COc2ccccc2N1CCCN1CCN(c2cccc3[nH]c(=O)oc23)CC1", "Kb, nM": 1140}
{"Test smiles": "O=C1COc2ccccc2N1CCCN1CCC(c2noc3cc(F)ccc23)CC1", "Kb, nM": 21.2}
{"Test smiles": "COc1ccccc1N1CCN(CCCN2C(=O)COc3ccccc32)CC1", "Kb, nM": 578}
{"Test smiles": "O=C1COc2ccccc2N1CCCN1CCN(c2cccc(Cl)c2Cl)CC1", "Kb, nM": 1860}
{"Test smiles": "O=C1COc2ccccc2N1CCCN1CCN(c2nsc3ccccc23)CC1", "Kb, nM": 235}

QUERY: Fill blank: measured Kb of the compound `O=C(Cc1ccccc1)NC1CCN(CCCN2C(=O)COc3ccccc32)CC1` is ____.
RESULT: 1570
